- EXPERIMENTAL_SYSTEM: Heat shock protein HSP90 (Homo sapiens, UniProt P07900+P08238)
- METHOD_DESCRIPTION: Inhibition of Hsp90 in human SKBR3 cells assessed as down-regulation of Her2 protein by ELISA
- Format: cell-based
- ASSAY_CONDITIONS: sk-br-3
Could you please report measured IC50 for the items listed next?
Numbers only, in µM.

Field: example entries. Status: answers known.
[[record]]
chem_smiles = "COc1ccc(C2=C(NC(=O)c3ccccc3Cl)C(=O)c3ccccc3C2=O)cc1"
readout_label = "IC50"
assay_value = 2

[[record]]
chem_smiles = "CC(=O)NC1=C(N2CCOCC2)C(=O)c2nonc2C1=O"
readout_label = "IC50"
assay_value = 1.2

[[record]]
chem_smiles = "COc1ccc(C2=C(NC(=O)c3ccccc3OC)C(=O)c3ccccc3C2=O)cc1"
readout_label = "IC50"
assay_value = 5.8

[[record]]
chem_smiles = "O=C(NC1=C(c2ccccc2)C(=O)c2ccccc2C1=O)c1ccccc1"
readout_label = "IC50"
assay_value = 3.8

[[record]]
chem_smiles = "COc1ccc(C(=O)NC2=C(c3ccc(OC)cc3)C(=O)c3ccccc3C2=O)cc1"
readout_label = "IC50"
assay_value = 2.4

[[record]]
chem_smiles = "O=C(NC1=C(Cl)C(=O)c2ccccc2C1=O)c1ccccc1"
readout_label = "IC50"
assay_value = 30.1

[[record]]
chem_smiles = "O=C1c2ccccc2C(=O)c2c1nc1ccccn21"
readout_label = "IC50"
assay_value = 1.2

[[record]]
chem_smiles = "COc1ccc(C2=C(NC(=O)c3cccc(Cl)c3)C(=O)c3ccccc3C2=O)cc1"
readout_label = "IC50"
assay_value = 12.9


Kindly review the next compound as well.
Query string: Dear colleague, I am looking for the recorded IC50 of the following compound: O=C(NC1=C(c2cccc(Cl)c2)C(=O)c2ccccc2C1=O)c1ccccc1
Result string: 6.3

###

Could you please report measured log10 of IC50 for the items listed next?
- METHOD_DESCRIPTION: Inhibition of Hsp90-dependent renaturation of firefly luciferase in rabbit reticulocyte lysate at 25 ug/mL
- Set-up: species or system Oryctolagus cuniculus
Hello, just confirming the data are log10 of IC50 with units of nM.

Field: example entries. Status: answers known.
[[record]]
chem_smiles = "COc1ccccc1C1=C(NC(C)=O)C(=O)c2ccccc2C1=O"
assay_value = 3.20

[[record]]
chem_smiles = "O=C1c2ccccc2C(=O)c2c1nc1ccccn21"
assay_value = 1.30

[[record]]
chem_smiles = "CC(=O)NC1=C(N2CCOCC2)C(=O)c2nonc2C1=O"
assay_value = 2.58

[[record]]
chem_smiles = "COc1ccc(C2=C(NC(=O)c3ccc(OC)c(-c4cccc(OC)c4)c3)C(=O)c3ccccc3C2=O)cc1"
assay_value = 4.93

[[record]]
chem_smiles = "COc1ccc(C2=C(NC(=O)C3CCCCC3)C(=O)c3ccccc3C2=O)cc1"
assay_value = 3.15


Report log10 of IC50 for every entry below.
1. CC(=O)NC1=C(c2ccc(Cl)cc2)C(=O)c2ccccc2C1=O
2. CC(=O)NC1=C(Cl)C(=O)c2ccccc2C1=O
3. COc1ccc(C(=O)NC2=C(c3ccc(OC)cc3)C(=O)c3ccccc3C2=O)cc1
4. COc1ccccc1C1=C(NC(=O)c2ccccc2)C(=O)c2ccccc2C1=O
5. CC(=O)C1=C(c2ccccc2)C(=O)c2ccccc2C1=O

Result string:
2.30
3.70
4.38
4.59
2.40

Report log10 of IC50 for every entry below.
1. COc1cccc(-c2cc(C(=O)NC3=C(Cl)C(=O)c4ccccc4C3=O)ccc2OC)c1
2. O=C(NC1=C(c2ccc(Cl)cc2)C(=O)c2ccccc2C1=O)c1ccccc1

Result string:
[3.20, 3.15]

Reference for the values: ChEMBL document CHEMBL1140877
